The origin of these recorded values is the supplement of paper PMC9732359.

# EXPERIMENT DESCRIPTION: protein stability index of a GFP-peptide fusion (yeast GPS) (PSI 1-4); higher = more stable; sorted into four equal gates, so the index is relative within each strain
# COND: ubr1∆
QUANTITY MEASURED: protein stability index

Name the reported protein stability index value associated with the sequence RFSPDEDFEHNNLSSMN [MCD1]
3.18

Name the reported protein stability index value associated with the sequence PDENKTRVRLPSGAKKV [RPL2A]
3.08

Name the reported protein stability index value associated with the sequence MKKKLELISYRNESLKN [SRB8]
3.07

Name the reported protein stability index value associated with the sequence NYTGWKAISVGANTSAA [PRE9]
1.17

Name the reported protein stability index value associated with the sequence FRHFIGIKAKHDKNIQK [ISW2]
2.51

Name the reported protein stability index value associated with the sequence QLILSDVDPEFYLKYVD [RET1]
2.92

Name the reported protein stability index value associated with the sequence VQVGPMKVFVTKHLMPQ [RPB7]
2.52

Name the reported protein stability index value associated with the sequence IALGEDIGKEMSLRHFG [RPN1]
3.34

Name the reported protein stability index value associated with the sequence PKFISEALAFTSLVANE [YDL116W/NUP84]
1.11

Name the reported protein stability index value associated with the sequence RHIKSKHEDLSLEQRQE [RPN4]
3.03

Name the reported protein stability index value associated with the sequence MAYFDENLNRNWRGREH [BRN1]
3.14

Name the reported protein stability index value associated with the sequence SEVQRTMLELLNQLDGF [RPT6]
2.51

Name the reported protein stability index value associated with the sequence TLGNALRYVIMKNPDVE [RPC19]
2.8

Name the reported protein stability index value associated with the sequence AVVQTVKGLLNTYKRLV [YJL039C/NUP192]
2.45

###

# EXPERIMENT DESCRIPTION: protein stability index of a GFP-peptide fusion (yeast GPS) (PSI 1-4); higher = more stable; sorted into four equal gates, so the index is relative within each strain
# COND: ubr1∆
QUANTITY MEASURED: protein stability index
# print the numeric value only

Name the reported protein stability index value associated with the sequence EAMLRENIEVILSNGRM [SNF12]
2.75

Name the reported protein stability index value associated with the sequence VLKCLKSLESQRYVKSV [RPC34]
1.91

Name the reported protein stability index value associated with the sequence SAAMSIDKLSDVVMKAT [PRP8]
2.37

Name the reported protein stability index value associated with the sequence VIPIRRGYWGTNLGQPH [RPS2]
1.79

Name the reported protein stability index value associated with the sequence CKRELAFVKQKNDSLEK [YIL149C/MLP2]
3.43

Name the reported protein stability index value associated with the sequence KRQYVKQFLTKDLKFPL [RPL20A]
2.83

Name the reported protein stability index value associated with the sequence SVKPHVVEPEHMADAKI [SIR4]
3

Name the reported protein stability index value associated with the sequence AAGNASSLPPGEILLPD [SNF5]
3.3

Name the reported protein stability index value associated with the sequence DWQKEDGIFSSKTDNIE [YMR153W/NUP53]
2.86

Name the reported protein stability index value associated with the sequence NLGEYESAVKYALAAKD [RPN2]
2.8

Name the reported protein stability index value associated with the sequence GEMERDCMIAHGAASFL [RPB2]
2.76

Name the reported protein stability index value associated with the sequence GEENRVRFIGDSVAAIG [QCR2]
3

Name the reported protein stability index value associated with the sequence SSENNQIILAYIKYNIL [SRP68]
2.88

Name the reported protein stability index value associated with the sequence ALIKFMEYHISNTDETK [FAS2]
2.3

Name the reported protein stability index value associated with the sequence NINSTDKSIDTSSLQLY [YML103C/NUP188]
3.25

Name the reported protein stability index value associated with the sequence IYDFPGTPEATKGMITN [NUT2]
3.3

Name the reported protein stability index value associated with the sequence TYPAGFMDVITLDATNE [RPS4A]
2.95

Name the reported protein stability index value associated with the sequence KLSDSKTSNIESVPIYS [BRR2]
2.6

Name the reported protein stability index value associated with the sequence VVDQLWSEISNELPDIE [RPN2]
2.69

Name the reported protein stability index value associated with the sequence DPQDVFNYNIFMHDPSV [SIR2]
2.69

Name the reported protein stability index value associated with the sequence SPISDSRDELIRLAKTL [RPN10]
2.24

Name the reported protein stability index value associated with the sequence SVQINVAKVDEEGRAIP [RPS21A]
3.32

Name the reported protein stability index value associated with the sequence EEIRSQIDHFKSMLSKP [SWI3]
2.35

Name the reported protein stability index value associated with the sequence DVSVKMGNTKVHCRISC [RRP45]
2.09

Name the reported protein stability index value associated with the sequence GYYVGYKATATGPKQQE [SCL1]
3.25

Name the reported protein stability index value associated with the sequence KFRSSILRKSFDFLMNM [RPN2]
2.4

Name the reported protein stability index value associated with the sequence ALKNACNSIINKLGALK [RPB11]
3.17

Name the reported protein stability index value associated with the sequence NEFQLQWGKYQTFGVDI [SWI1]
3.26

Name the reported protein stability index value associated with the sequence PIGEAGDFGGWFCPCHG [RIP1]
3.18

Name the reported protein stability index value associated with the sequence GNIKDLPENIILTSLMR [CSN9]
3.03

###

# EXPERIMENT DESCRIPTION: protein stability index of a GFP-peptide fusion (yeast GPS) (PSI 1-4); higher = more stable; sorted into four equal gates, so the index is relative within each strain
# COND: ubr1∆
Kindly state protein stability index for each of the entries shown.
# print the numeric value only

Name the reported protein stability index value associated with the sequence VVRIKGINKIPPKPRKV [RPL7A]
2.44

Name the reported protein stability index value associated with the sequence ILSVKLAELINMTTIAD [SRB6]
2.85

Name the reported protein stability index value associated with the sequence VKPISIEAPQFYRYWSA [SWI3]
2.02

Name the reported protein stability index value associated with the sequence YIEEKHPTIYESLPQYV [POP4]
2.06

Name the reported protein stability index value associated with the sequence YLKKREAGEVKDDGAFV [RPL10]
3.27

Name the reported protein stability index value associated with the sequence EEAKSVLPAATKKKSKF [ARP9]
2.31

Name the reported protein stability index value associated with the sequence QDLILDLKKKLNSLKDE [SMC4]
1.57

Name the reported protein stability index value associated with the sequence LQCHISGTTNFMRNGLL [UBP6]
2.31

Name the reported protein stability index value associated with the sequence THRNKDGTGVRVIVAGT [FAS1]
1.6

Name the reported protein stability index value associated with the sequence GLVCADTFRAGAFDQLK [SRP54]
3.25

Name the reported protein stability index value associated with the sequence KYSAITSSIFQESFNSV [NUT1]
2.48

Name the reported protein stability index value associated with the sequence EKESDDGLLEYLEDIIG [SMC4]
3.54

Name the reported protein stability index value associated with the sequence AGIVPVSANTPKSLNSN [SWI1]
3.22

Name the reported protein stability index value associated with the sequence DANPSSQIIARNEEILR [SMC2]
2.76

Name the reported protein stability index value associated with the sequence RILKNVSPNDNNSANNN [YMR153W/NUP53]
2.59

Name the reported protein stability index value associated with the sequence YGDGNGKGDNDNGLGPL [SWI3]
3

Name the reported protein stability index value associated with the sequence VFSALKNLISRINTLPQ [ECM29]
2.71

Name the reported protein stability index value associated with the sequence SVINNYLREDQMIDTSI [NUT1]
2.84

Name the reported protein stability index value associated with the sequence ATQSGGVRPFGVSLLIA [PRE8]
1.51

Name the reported protein stability index value associated with the sequence EDVLSSFYRVEKIKKIN [SSN2]
1.16

Name the reported protein stability index value associated with the sequence REIHNEAESQLRAAQQQ [FAS2]
2.91

Name the reported protein stability index value associated with the sequence EALLVVLVSSVTEANII [RPS12]
1.13

Name the reported protein stability index value associated with the sequence FKCQEKDKGVYVVTSDE [SIR2]
3.34

Name the reported protein stability index value associated with the sequence YSRITLIIDDPSKGQSL [RPP1]
2.78

Name the reported protein stability index value associated with the sequence PFFKYIDDANVTRKQED [RPC37]
2.52

Name the reported protein stability index value associated with the sequence FVTQFRHLRRTGKVSEF [RET1]
2.41

Name the reported protein stability index value associated with the sequence DEMYELTDPMTVMFFYH [DIB1]
2.85

Name the reported protein stability index value associated with the sequence VEIIDQKKVLIDGPKAG [RPL14A]
2.72

Name the reported protein stability index value associated with the sequence DKKLLRRLLNLYNDNNK [SWI1]
2.6

Name the reported protein stability index value associated with the sequence KDRISHEVVQDDSFSLL [PCI8]
3.05

Name the reported protein stability index value associated with the sequence TTTMLQLFSTFDRLNGN [SSN2]
3.02

Name the reported protein stability index value associated with the sequence TYEAIEITDAYCFAKND [YMR129W/POM152]
3.01

Name the reported protein stability index value associated with the sequence NVKNDVSFNDSQSMVTN [YIL149C/MLP2]
3.3

Name the reported protein stability index value associated with the sequence IGEFNVSMYQNSSTSST [YDL088C/ASM4]
2.17

Name the reported protein stability index value associated with the sequence SKSTSMKLSMPPEVTSS [POP1]
2.54

Name the reported protein stability index value associated with the sequence KETIARVTGGMKVKADR [RPS14A]
3.27

Name the reported protein stability index value associated with the sequence TVFLPMVGLVDPDKLKP [RPT5]
2.44

Name the reported protein stability index value associated with the sequence DSKGSLYSVKFAPAHLG [YGL100W/SEH1]
2.81

Name the reported protein stability index value associated with the sequence KTEDPKGGIIASVGDIL [YML031W/NDC1]
2.12

Name the reported protein stability index value associated with the sequence SQTMAETYVASYVVPRL [ECM29]
2

Name the reported protein stability index value associated with the sequence NDTSSGTNAMLPSPESL [SNF5]
2.8

Name the reported protein stability index value associated with the sequence PRALQPSQFGMLCTADT [RET1]
2.18

Name the reported protein stability index value associated with the sequence MDALTLMKCCHEAYSII [RRP45]
1.76

Name the reported protein stability index value associated with the sequence FEWDISNSDNCPEEFAE [SNF5]
3.29

Name the reported protein stability index value associated with the sequence ASSWAKKIAQRERRAAL [RPL14A]
2.22

Name the reported protein stability index value associated with the sequence DPFFAQSEDLSHAVEFF [YML103C/NUP188]
3.14

Name the reported protein stability index value associated with the sequence LFQVEYSLEAIKLGSTA [PUP2]
2.2

Name the reported protein stability index value associated with the sequence MSNDPGNEVSSLYPPPP [MED7]
3.08

Name the reported protein stability index value associated with the sequence ITFHPKIRARSITLQGD [SMC2]
2.48

Name the reported protein stability index value associated with the sequence RVTGGMKVKADRDESSP [RPS14A]
3.26

Name the reported protein stability index value associated with the sequence DYSINSRYEPKVFDCGD [PRE7]
2.59

Name the reported protein stability index value associated with the sequence FEIDGDVIHFEDSSILQ [PCI8]
3.46

Name the reported protein stability index value associated with the sequence KNTMFEKSDALVGVYRQ [SMC1]
2.94

Name the reported protein stability index value associated with the sequence STKSNKTRNPLTHSTPK [RPL8A]
1.88

Name the reported protein stability index value associated with the sequence NKTSNNNNVTAVPAATP [SWI1]
3.07

Name the reported protein stability index value associated with the sequence ETTTQFKATHILDFGPG [FAS1]
2.25

Name the reported protein stability index value associated with the sequence ELSKSRALQENGIIMNG [YMR153W/NUP53]
3.17

Name the reported protein stability index value associated with the sequence MFLYILKHLEEMGKLRE [RRI2]
3.16

Name the reported protein stability index value associated with the sequence RAIRSEKYGKQVYDLLK [BRR2]
3.26

Name the reported protein stability index value associated with the sequence FISELCSIEPIAAKLIN [YML103C/NUP188]
1.35
